Test system: CCRF-CEM leukemia
Test: NCI-60 one-dose screen, 48 h
Conditions: 10 µM unless noted
Procedure: Growth inhibition of the CCRF-CEM human tumor cell line is measured as a screen for anti-cancer activity. Cells are grown in 96 well plates and exposed to the test compound for 48 hours. Compounds are tested at a single concentration, which is 10^-5 M for most compounds. The reported endpoint is percent growth (GI% or GIPRCNT), where numbers from 0 - 100% represent growth inhibition, and numbers from -100% - 0 represent cell death. For example, a value of 40 represents 60% growth inhibition. […]
This is part of a sample that, as a whole, favours compounds with a hit. Of some 83,000 tested, about 20% had one in any assay. Active and inactive are the calls of the source. The calls were made as follows: active = growth percent below 10; inactive = the rest.
Entry note: the call must match one of YES for active, NO for inactive

Please review the entries below; each comes with its answer.
structure_string: CC(=O)OC[C@]12CCC(C)(C)C=C1[C@H]1CC[C@@H]3[C@@]4(C)CCCNC(C)(C)[C@@H]4CC[C@@]3(C)[C@]1(C)CC2
assigned_class: NO
--
structure_string: O=S(=O)(O)c1ccc(N=Nc2ccc(N=Nc3cccc4ccccc34)c(S(=O)(=O)O)c2)cc1
assigned_class: NO

Call for entry `CCC(=C(c1ccc(OCCCN(C)C)cc1)c1ccc(OCCCN(C)C)cc1)c1ccc(Cl)cc1` :
YES

Call for entry `COc1ccc(-c2nc(Cl)c3c(C)nn(-c4ccc(F)cc4)c3n2)cc1` :
NO
